Target: UniProtKB A0AAX3LD49
Format: biochemical, Erwinia sp. SK-472-20
Parameters: SK-472-20
Conditions: 2 mM, Table 2
assay.endpoint: Effect on sorbitol kinase activity (in words)

compound: [Cl][Cu][Cl] [CuCl2]
target.system: UniProtKB A0AAX3LD49
result.value: inhibited

compound: [Cl][Ni][Cl] [NiCl2]
target.system: UniProtKB A0AAX3LD49
result.value: inhibited

compound: [Cl-].[Cl-].[Co+2] [CoCl2]
target.system: UniProtKB A0AAX3LD49
result.value: inhibited

---

The molecules listed here are annotated with their Relative activity on substrate.
Target: sorbitol kinase (Enterobacter ludwigii)
Sequence (A0AAX3LD49 entry or part of it): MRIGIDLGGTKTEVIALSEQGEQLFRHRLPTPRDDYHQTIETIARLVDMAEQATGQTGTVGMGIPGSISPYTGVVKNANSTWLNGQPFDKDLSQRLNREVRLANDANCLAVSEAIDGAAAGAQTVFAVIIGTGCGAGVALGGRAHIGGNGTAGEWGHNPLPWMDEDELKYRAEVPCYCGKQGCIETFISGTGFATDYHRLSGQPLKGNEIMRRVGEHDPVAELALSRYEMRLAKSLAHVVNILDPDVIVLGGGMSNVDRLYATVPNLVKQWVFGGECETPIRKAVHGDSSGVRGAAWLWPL
Assay type: biochemical, Erwinia sp. SK-472-20 gene expressed in E.coli
Set-up: no tag mentioned
Settings: enzyme produced by transformant; sorbitol set at 100%
Procedure: A reaction mixture 1 ml consisting of 100 mM Tris-HCl buffer solution (pH 8.5), 2 mM ATP, 2 mM MgCl2, 5 unit/ml sorbitol-6-phosphatedehydrogenase (refer to referential example 3), 1 mM NAD, 5 units/ml diaphorase (Asahi Chem. Ind. Co.), 0.025% nitrotetrazolium blue, 100 mMD-sorbitol and 0.1% Triton X-100 was incubated with the aliqluot diluted sonicated microbial cells 20 μl at 37° C. for 10 minutes. […]

molecule: OC[C@H]1O[C@@H](O[C@H]2[C@H](O)[C@@H](O)C(O)O[C@@H]2CO)[C@H](O)[C@@H](O)[C@H]1O (stereo partly drawn)
target.system: sorbitol kinase (Enterobacter ludwigii)
unit.info: %
Relative activity on substrate: 0
--
molecule: O=C(CO)[C@@H](O)[C@H](O)[C@H](O)CO
target.system: sorbitol kinase (Enterobacter ludwigii)
unit.info: %
Relative activity on substrate: 0
--
molecule: O[C@H]1[C@H](O)[C@@H](O)[C@H](O)[C@@H](O)[C@H]1O
target.system: sorbitol kinase (Enterobacter ludwigii)
unit.info: %
Relative activity on substrate: 0
--
molecule: OC[C@@H](O)[C@@H](O)[C@H](O)[C@@H](O)CO
target.system: sorbitol kinase (Enterobacter ludwigii)
unit.info: %
Relative activity on substrate: 100
--
molecule: OC[C@H]1O[C@H](O[C@H]2[C@H](O)[C@@H](O)[C@H](O)O[C@@H]2CO)[C@H](O)[C@@H](O)[C@@H]1O
target.system: sorbitol kinase (Enterobacter ludwigii)
unit.info: %
Relative activity on substrate: 0
--
molecule: OC[C@H]1O[C@@](CO)(O[C@H]2O[C@H](CO)[C@@H](O)[C@H](O)[C@H]2O)[C@@H](O)[C@@H]1O
target.system: sorbitol kinase (Enterobacter ludwigii)
unit.info: %
Relative activity on substrate: 0

---

Target: UniProt A0AAX3LD49
Format: biochemical, Erwinia sp. SK-472-20 gene expressed in E.coli
Design: no tag mentioned
Settings: enzyme produced by transformant

record.smiles: [Cl-].[Cl-].[Co+2]
target.system: UniProt A0AAX3LD49
Effect on enzyme activity (in words): inhibited
//
record.smiles: [Cl][Cu][Cl]
target.system: UniProt A0AAX3LD49
Effect on enzyme activity (in words): inhibited
//
record.smiles: [Cl][Ni][Cl]
target.system: UniProt A0AAX3LD49
Effect on enzyme activity (in words): inhibited
